- system: HiBit-BRG1 fusion protein (Homo sapiens)
- Construct: expressed in transfected cells
- methodDescription: HiBiT-BRG1 cell-based degradation assay (Nano-Glo HiBiT lytic detection, 24 h)
- measurementConditions: HeLa cell line expressing HiBit-BRG1 and LgBit, read-out: BRMG1 HiBit Degradation IC50
# reported DC50; entries follow

compound	system	DC50
Cc1ncsc1-c1ccc(CNC(=O)[C@@H]2C[C@@H](O)CN2C(=O)[C@@H](c2cc(-c3cnc(N4CC[C@@H](c5cc6nnc(-c7ccccc7O)cc6n5C5CC5)C4)nc3)no2)C(C)C)cc1 [Compound 89]	HiBit-BRG1 fusion protein (Homo sapiens)	> 10 nM
Cc1ncsc1-c1ccc([C@H](C)NC(=O)[C@@H]2C[C@@H](O)CN2C(=O)[C@H](C(C)C)n2cc(-c3cnc(N4CC[C@@H](c5cc6nnc(-c7ccccc7O)cc6n5C5CC5)C4)nc3)nn2)cc1 [Compound 71]	HiBit-BRG1 fusion protein (Homo sapiens)	< 10 nM
Cc1ncsc1-c1ccc([C@H](C)NC(=O)[C@@H]2C[C@@H](O)CN2C(=O)[C@@H](c2cc(N3CCC(N4CC(c5cc6nnc(-c7ccccc7O)cc6[nH]5)C4)CC3)no2)C(C)C)cc1 [Compound 5]	HiBit-BRG1 fusion protein (Homo sapiens)	> 100 nM

###

- system: HiBit-BRG1 fusion protein (Homo sapiens, UniProt P51532)
- Construct: expressed in transfected cells
- Sequence (P51532 whole entry, the tested form may be a part): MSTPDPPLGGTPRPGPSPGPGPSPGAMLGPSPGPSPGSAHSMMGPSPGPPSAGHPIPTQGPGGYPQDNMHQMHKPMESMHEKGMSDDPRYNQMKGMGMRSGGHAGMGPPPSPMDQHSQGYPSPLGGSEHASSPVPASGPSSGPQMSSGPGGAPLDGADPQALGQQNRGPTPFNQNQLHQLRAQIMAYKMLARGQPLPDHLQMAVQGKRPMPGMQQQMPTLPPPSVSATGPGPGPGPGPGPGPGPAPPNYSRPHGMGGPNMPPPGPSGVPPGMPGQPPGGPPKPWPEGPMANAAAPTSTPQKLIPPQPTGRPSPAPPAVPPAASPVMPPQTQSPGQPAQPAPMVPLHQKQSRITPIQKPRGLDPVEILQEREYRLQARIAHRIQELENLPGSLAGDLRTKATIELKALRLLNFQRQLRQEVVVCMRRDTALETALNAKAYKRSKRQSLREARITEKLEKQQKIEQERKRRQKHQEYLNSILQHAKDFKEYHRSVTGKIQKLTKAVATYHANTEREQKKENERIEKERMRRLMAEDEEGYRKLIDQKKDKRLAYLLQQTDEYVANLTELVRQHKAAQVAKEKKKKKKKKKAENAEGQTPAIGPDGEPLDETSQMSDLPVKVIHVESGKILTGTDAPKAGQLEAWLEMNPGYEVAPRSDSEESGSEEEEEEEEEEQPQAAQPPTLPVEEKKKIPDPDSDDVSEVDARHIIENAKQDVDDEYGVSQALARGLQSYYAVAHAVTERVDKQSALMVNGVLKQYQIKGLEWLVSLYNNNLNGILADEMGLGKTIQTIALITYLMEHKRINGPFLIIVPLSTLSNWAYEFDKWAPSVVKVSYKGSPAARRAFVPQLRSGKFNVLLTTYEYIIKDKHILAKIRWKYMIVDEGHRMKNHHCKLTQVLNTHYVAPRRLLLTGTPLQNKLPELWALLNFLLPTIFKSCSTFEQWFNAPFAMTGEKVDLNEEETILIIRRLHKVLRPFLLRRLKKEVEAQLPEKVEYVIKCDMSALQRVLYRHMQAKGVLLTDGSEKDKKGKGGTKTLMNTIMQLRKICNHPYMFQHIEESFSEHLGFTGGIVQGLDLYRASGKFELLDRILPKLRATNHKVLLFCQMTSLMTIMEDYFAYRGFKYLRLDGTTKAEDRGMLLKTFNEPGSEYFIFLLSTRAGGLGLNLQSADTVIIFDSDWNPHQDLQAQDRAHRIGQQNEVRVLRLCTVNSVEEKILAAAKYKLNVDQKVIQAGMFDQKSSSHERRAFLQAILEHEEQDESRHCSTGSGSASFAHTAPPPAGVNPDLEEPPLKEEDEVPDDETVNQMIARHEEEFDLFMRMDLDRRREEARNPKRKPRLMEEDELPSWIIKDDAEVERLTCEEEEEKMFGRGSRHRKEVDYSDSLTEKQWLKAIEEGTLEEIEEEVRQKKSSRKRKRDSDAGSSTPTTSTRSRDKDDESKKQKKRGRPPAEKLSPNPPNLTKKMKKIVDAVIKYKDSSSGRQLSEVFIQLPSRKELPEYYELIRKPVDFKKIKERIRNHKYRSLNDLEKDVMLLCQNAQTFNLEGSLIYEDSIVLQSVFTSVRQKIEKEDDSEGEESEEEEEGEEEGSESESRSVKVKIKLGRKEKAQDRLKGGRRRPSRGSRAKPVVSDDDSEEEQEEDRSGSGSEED
- methodDescription: HiBiT-BRG1 cell-based degradation assay (Nano-Glo HiBiT lytic detection, 24 h)
- measurementConditions: HeLa cell line expressing HiBit-BRG1 and LgBit, read-out: BRG1 HiBit Degradation Maximum (%)
# reported Dmax; entries follow
testReadout: Dmax

itemSmiles	testReadout	dataValue
Cc1ncsc1-c1ccc([C@H](C)NC(=O)[C@@H]2C[C@@H](O)CN2C(=O)[C@@H](c2cc(N(C)CCN3CC(c4cc5nnc(-c6ccccc6O)cc5[nH]4)C3)no2)C(C)C)cc1	Dmax	< 50%
Cc1ncsc1-c1ccc([C@H](C)NC(=O)[C@@H]2C[C@@H](O)CN2C(=O)[C@@H](c2cc(-c3cnc(N4CC[C@@H](c5cc6nnc(-c7ccccc7O)cc6n5C5CCC5)C4)nc3)no2)C(C)C)cc1	Dmax	< 50%
Cc1ncsc1-c1ccc([C@H](C)NC(=O)[C@@H]2C[C@@H](O)CN2C(=O)[C@@H](c2cc(-c3cnc(N4CC[C@H](c5cc6nnc(-c7ccccc7O)cc6n5C5CC5)C4)nc3)no2)C(C)C)cc1	Dmax	< 50%
Cc1ncsc1-c1ccc([C@H](C)NC(=O)[C@@H]2C[C@@H](O)CN2C(=O)[C@@H](c2cc(N3CCC(N4CC(c5cc6nnc(-c7ccccc7O)cc6[nH]5)C4)CC3)no2)C(C)C)cc1	Dmax	> 75%
Cc1ncsc1-c1ccc([C@H](C)NC(=O)[C@@H]2C[C@@H](O)CN2C(=O)[C@@H](c2cc(N3CC4(CC(c5cc6nnc(-c7ccccc7O)cc6n5C5(C)CC5)C4)C3)no2)C(C)C)cc1	Dmax	> 50%
Cc1ncsc1-c1ccc([C@H](C)NC(=O)[C@@H]2C[C@@H](O)CN2C(=O)[C@@H](c2cc(N3CCC(CN4CC(c5cc6nnc(-c7ccccc7O)cc6n5C)C4)CC3)no2)C(C)C)cc1	Dmax	< 50%

###

# reported DC50; entries follow
- system: HiBit-BRM fusion protein (Homo sapiens, UniProt P51531)
- Construct: expressed in transfected cells
- Sequence (P51531 whole entry, the tested form may be a part): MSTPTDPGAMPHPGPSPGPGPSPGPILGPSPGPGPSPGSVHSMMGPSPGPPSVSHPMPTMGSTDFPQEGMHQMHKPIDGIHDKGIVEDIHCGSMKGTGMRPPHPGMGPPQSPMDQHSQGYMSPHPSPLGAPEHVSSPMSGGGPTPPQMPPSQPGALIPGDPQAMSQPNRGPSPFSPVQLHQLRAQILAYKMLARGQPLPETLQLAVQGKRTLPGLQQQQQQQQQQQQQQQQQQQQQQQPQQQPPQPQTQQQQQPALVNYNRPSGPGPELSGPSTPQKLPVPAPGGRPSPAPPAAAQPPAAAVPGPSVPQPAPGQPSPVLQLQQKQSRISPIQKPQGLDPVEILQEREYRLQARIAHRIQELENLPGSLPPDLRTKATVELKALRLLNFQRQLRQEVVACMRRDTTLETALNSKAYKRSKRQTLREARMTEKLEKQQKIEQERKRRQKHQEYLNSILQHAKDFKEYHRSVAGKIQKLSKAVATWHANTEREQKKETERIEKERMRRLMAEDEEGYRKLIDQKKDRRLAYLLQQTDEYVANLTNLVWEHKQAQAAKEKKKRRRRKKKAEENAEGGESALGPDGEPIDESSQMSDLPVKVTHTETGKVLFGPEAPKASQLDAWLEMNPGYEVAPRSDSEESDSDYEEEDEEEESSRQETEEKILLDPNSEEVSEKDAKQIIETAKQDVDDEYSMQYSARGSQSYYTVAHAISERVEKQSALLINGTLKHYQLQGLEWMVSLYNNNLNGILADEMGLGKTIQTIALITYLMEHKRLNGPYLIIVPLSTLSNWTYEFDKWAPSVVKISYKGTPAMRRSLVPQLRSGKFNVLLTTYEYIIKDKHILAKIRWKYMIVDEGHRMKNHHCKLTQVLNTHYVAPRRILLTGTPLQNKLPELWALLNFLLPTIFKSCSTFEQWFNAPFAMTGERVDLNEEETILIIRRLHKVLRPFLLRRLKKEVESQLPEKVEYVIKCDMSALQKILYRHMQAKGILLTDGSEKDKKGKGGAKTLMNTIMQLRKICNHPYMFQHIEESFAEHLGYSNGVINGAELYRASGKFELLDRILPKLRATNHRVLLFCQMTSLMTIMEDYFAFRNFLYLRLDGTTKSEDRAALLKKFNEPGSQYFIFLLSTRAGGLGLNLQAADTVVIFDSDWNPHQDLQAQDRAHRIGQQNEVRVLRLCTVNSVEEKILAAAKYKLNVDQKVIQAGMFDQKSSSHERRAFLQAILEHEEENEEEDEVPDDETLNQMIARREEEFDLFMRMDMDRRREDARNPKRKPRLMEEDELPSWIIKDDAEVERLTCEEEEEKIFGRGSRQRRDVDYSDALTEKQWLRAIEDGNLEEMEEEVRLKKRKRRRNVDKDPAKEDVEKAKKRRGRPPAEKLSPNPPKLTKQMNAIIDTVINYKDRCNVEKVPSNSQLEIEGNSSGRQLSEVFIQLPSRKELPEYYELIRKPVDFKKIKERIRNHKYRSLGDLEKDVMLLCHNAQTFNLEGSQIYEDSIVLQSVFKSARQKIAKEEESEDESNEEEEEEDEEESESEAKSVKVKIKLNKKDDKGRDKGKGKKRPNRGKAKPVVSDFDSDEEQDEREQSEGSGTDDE
- methodDescription: HiBiT-BRM cell-based degradation assay (Nano-Glo HiBiT lytic detection, 24 h)
- measurementConditions: HeLa cell line expressing HiBiT-BRM, read-out: BRM HiBit Degradation IC50

compound	DC50
CC(C)C(C(=O)N1C[C@H](O)C[C@H]1C(=O)N[C@@H](C)c1ccccc1)c1cc(N2CC3(CC(c4cc5nnc(-c6ccccc6O)cc5n4C4CCC4)C3)C2)no1 (some centres unmarked)	> 10 nM
Cc1ncsc1-c1ccc([C@H](C)NC(=O)[C@@H]2C[C@@H](O)CN2C(=O)[C@@H](c2cc(N3CCC(N4CC(c5cc6nnc(-c7ccccc7O)cc6[nH]5)C4)CC3)no2)C(C)C)cc1	< 10 nM
C#Cc1ccc(CNC(=O)[C@@H]2C[C@@H](O)CN2C(=O)C(c2cc(N3CC4(CC(c5cc6nnc(-c7ccccc7O)cc6n5C5CCC5)C4)C3)no2)C(C)C)c(OC)c1 (some centres unmarked)	< 10 nM
Cc1ncsc1-c1ccc(CNC(=O)[C@@H]2C[C@@H](O)CN2C(=O)[C@@H](c2cc(-c3cnc(N4CC[C@@H](c5cc6nnc(-c7ccccc7O)cc6n5C5CC5)C4)nc3)no2)C(C)C)cc1	> 10 nM
Cc1ncsc1-c1ccc([C@H](C)NC(=O)[C@@H]2C[C@@H](O)CN2C(=O)[C@@H](c2cc(-c3cnc(N4CCC(c5cc6nnc(-c7ccccc7O)cc6n5C)CC4)nc3)no2)C(C)C)cc1	< 10 nM

Data provenance: patent US20250302832A1
